protocol_notes: Pharmacokinetic profile of fingolimod in plasma and spinal cord of SOD1 mice
Format: in vivo
assay_conditions: G93A-SOD1 transgenic, mouse; male SOD1 mice, single IP bolus 6.7 mg/kg, plasma; read-out: plasma Cmax
measurement_label: Cmax (ng/mL)
Give bare numbers, in ng/mL.

## Input What does the data say about its Cmax? Entry: `CCCCCCCCc1ccc(CCC(N)(CO)CO)cc1`
## Output 185
